Target chain: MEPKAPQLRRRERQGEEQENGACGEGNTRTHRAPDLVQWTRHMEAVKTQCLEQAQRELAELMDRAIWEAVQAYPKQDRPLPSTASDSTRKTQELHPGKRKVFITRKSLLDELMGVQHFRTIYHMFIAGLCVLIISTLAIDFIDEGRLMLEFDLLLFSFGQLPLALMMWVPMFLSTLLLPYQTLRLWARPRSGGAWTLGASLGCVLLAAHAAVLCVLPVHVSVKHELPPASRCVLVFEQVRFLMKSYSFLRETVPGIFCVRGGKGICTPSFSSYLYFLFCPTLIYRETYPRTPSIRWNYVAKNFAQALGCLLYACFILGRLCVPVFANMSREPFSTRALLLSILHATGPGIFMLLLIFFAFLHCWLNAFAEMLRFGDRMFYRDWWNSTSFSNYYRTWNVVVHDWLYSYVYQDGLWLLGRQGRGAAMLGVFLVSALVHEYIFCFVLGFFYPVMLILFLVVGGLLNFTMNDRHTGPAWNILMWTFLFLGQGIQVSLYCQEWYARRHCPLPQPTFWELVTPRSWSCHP
pIC50: −log10 of the molar value.
endpoint.label: pIC50

Please review the following examples before continuing.
CCCCCC1=C(CCCCC)CC(C(=O)Nc2cncnc2SC)SC1 (centres unmarked) [Example 32] :: 5.00 to 5.52
CSc1cc(C)nc(SC)c1NC(=O)C1CC(C)=C(C)CO1 (centres unmarked) [Example 106] :: 4.30 to 4.96
CCCCCC1C=CC(CCCCC)C(C(=O)Nc2c(SC)cc(C)nc2SC)S1 (centres unmarked) [Example 70] :: > 5.70

Record CC1=C(C)CC(C(=O)Nc2c(C(C)C)cccc2C(C)C)SC1 (centres unmarked) [Example 53] , field pIC50: 5.00 to 5.52

Record CSc1cc(C)nc(SC)c1NC(=O)C1SC(CCCCl)C=CC1CCCCl (centres unmarked) [Example 180] , field pIC50: > 5.70

Record CCCCCC1=C(CCCCC)CC(C(=O)Nc2c(SC)cc(C)nc2SC)SC1 (centres unmarked) [Example 31] , field pIC50: > 5.70

Record CCCCO[C@H]1[C@@H](OC)O[C@H](C(=O)Nc2c(SC)cc(C)nc2SC)C(OCc2ccccc2)[C@@H]1OCCCC (stereo in doubt) [Example 426] , field pIC50: 4.30 to 4.96

Record CCCCC1=C(CCCC)CC(C(=O)Nc2c(Cl)cccc2Cl)SC1 (centres unmarked) [Example 42] , field pIC50: > 5.70

---

target.or.test.system: Acyl-CoA: Cholesterol Acyltransferase (ACAT) (Rattus norvegicus)
Sequence (Q7TQM4 1-524): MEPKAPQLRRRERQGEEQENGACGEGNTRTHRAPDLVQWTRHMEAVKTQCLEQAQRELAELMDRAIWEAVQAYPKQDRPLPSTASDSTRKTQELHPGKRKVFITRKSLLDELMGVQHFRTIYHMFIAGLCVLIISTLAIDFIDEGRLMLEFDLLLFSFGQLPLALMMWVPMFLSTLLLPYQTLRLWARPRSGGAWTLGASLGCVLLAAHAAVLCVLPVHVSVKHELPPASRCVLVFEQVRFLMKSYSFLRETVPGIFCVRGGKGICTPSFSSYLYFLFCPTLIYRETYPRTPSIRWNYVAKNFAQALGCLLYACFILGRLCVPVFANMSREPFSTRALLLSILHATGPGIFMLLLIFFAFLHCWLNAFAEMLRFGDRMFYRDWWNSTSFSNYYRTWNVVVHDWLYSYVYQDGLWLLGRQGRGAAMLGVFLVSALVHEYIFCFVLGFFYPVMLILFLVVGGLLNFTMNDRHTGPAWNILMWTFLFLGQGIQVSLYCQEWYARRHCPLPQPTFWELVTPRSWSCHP
pIC50: −log10 of the molar value.
endpoint.label: pIC50

Please review the following examples before continuing.
CCCCCCCCC1=C(CCCCCCCC)CC(C(=O)Nc2c(SC)cc(C)nc2SC)SC1 (centres unmarked) [Example 35] :: > 5.70
CCCC1C=CC(CCC)C(C(=O)Nc2c(SC)cc(C)nc2SC)S1 (centres unmarked) [Example 140] :: > 5.70
CCCCCC1=CC(CCCCC)C(C(=O)Nc2c(C(C)C)cccc2C(C)C)SC1 (centres unmarked) [Example 79] :: > 5.70
CCCCCC1=C(CCCCC)CC(C(=O)Nc2c(C)nn(C)c2SC)SC1 (centres unmarked) [Example 39] :: > 5.70

Record CSc1cc(C)nc(SC)c1NC(=O)C1SCC=CC1OC(C)=O (centres unmarked) [Example 168] , field pIC50: 5.00 to 5.52
